Target: AhR (Homo sapiens, UniProt P35869)
Sequence (P35869 11-848): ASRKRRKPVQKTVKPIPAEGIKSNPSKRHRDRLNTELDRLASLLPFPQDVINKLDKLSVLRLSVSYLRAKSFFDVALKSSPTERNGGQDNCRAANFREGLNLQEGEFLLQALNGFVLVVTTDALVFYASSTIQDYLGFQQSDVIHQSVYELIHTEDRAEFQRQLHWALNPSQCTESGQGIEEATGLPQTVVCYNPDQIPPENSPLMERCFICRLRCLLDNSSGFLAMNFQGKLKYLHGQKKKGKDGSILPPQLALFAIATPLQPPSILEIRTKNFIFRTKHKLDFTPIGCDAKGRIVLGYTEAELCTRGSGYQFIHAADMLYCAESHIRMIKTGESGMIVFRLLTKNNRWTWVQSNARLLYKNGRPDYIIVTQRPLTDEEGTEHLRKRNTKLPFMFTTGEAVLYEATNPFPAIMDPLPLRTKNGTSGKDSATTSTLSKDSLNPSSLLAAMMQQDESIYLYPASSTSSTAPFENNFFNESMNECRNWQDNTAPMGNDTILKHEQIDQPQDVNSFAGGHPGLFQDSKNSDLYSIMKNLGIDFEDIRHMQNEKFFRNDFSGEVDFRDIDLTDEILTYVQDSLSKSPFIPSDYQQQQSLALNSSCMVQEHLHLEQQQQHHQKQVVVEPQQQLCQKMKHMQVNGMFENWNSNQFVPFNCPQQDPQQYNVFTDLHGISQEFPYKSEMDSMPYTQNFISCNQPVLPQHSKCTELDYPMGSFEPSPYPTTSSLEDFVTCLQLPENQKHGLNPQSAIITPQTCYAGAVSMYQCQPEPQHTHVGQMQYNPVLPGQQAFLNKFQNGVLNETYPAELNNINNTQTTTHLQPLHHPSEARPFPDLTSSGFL
Sequence (P27540 whole entry partner): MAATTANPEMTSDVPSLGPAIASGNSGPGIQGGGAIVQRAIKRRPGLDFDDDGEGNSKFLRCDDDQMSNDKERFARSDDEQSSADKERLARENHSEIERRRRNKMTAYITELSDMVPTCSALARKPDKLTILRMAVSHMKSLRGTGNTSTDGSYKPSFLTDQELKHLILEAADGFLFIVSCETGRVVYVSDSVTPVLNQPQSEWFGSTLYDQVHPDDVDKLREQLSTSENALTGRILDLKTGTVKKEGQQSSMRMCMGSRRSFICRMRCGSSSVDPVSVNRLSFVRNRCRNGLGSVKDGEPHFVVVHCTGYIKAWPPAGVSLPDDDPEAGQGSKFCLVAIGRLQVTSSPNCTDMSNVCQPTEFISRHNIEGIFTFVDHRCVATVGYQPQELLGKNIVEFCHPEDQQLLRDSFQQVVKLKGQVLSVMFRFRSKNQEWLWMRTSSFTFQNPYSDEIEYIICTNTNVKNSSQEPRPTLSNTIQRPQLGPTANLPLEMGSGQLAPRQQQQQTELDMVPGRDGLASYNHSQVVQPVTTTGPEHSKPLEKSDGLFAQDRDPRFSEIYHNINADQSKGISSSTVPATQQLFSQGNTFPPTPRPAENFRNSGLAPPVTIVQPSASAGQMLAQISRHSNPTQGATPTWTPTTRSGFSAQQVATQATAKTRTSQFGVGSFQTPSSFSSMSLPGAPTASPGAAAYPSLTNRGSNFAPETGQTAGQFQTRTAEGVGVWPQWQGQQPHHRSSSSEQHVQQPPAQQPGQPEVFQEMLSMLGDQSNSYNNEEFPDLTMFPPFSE
Experiment: Yeast AhR reporter assay (β-galactosidase)
reported.property: EC50

What the record says about Clc1cc2c(cc1Cl)Oc1cc(Cl)c(Cl)cc1O2 [compound 25, 2,3,7,8-tetrachlorodibenzo-p-dioxin, reference compound] : EC50 is 25 nM

###

Molecular target: insulin receptor Tyr kinase
Test: insulin receptor Tyr kinase assay
Settings: read-out: IC50 insulin receptor Tyr kinase; Table 2, 15 μM ATP
reported.property: IC50

Data point: CC(=O)ON=C1C(=C2C(=O)Nc3cc(Br)ccc32)Nc2ccccc21 [8a, 6-Bromoindirubin-3′-acetoxime] ; IC50 = > 10 µM

So, CON=C1C(=C2C(=O)Nc3cc(Br)ccc32)Nc2ccccc21 [9a, 6-Bromoindirubin-3′-methoxime] ? Its IC50 was > 10 µM

###

Hi there, I'd appreciate the recorded pIC50 for every entry that follows.
Target: CDK1/cyclin B
Experiment: CDK1/cyclin B kinase assay (histone H1, 15 μM ATP)
Type: biochemical, starfish (Marthasterias glacialis)
Settings: Table 5; read-out: IC50 CDK1/cyclin B
Expect pIC50 as a plain number equal to -log10 of the molar concentration.

The molecule Cc1cc2c(cc1Br)NC(=O)C2=C1Nc2ccccc2C1=O showed pIC50 equal to 4.52

For O=C1Nc2cc(I)ccc2/C1=C1/Nc2ccccc2C1=O the molecule record lists pIC50 as 5.80

Sure, the documented pIC50 for O=C1Nc2cc(Br)ccc2C1=C1Nc2cc(Br)ccc2C1=NO [13b, 6,6′-dibromo-indirubin-3′-oxime] is 4.77

Entry CC(=O)ON=C1C(=C2C(=O)Nc3cc(Br)c([N+](=O)[O-])cc32)Nc2ccccc21 , pIC50 reported as 4.96

# molecule O=C1Nc2cccc(Cl)c2/C1=C1/Nc2ccccc2C1=O ; its pIC50 = 5.00

Lookup result for CC(=O)ON=C1C(=C2C(=O)Nc3cc(Br)ccc32)Nc2ccccc21 ; measured pIC50: 4.20

###

Record: EC50 reported on AhR (Homo sapiens).
Report as a plain number; the unit nM is understood.

# value of EC50, AhR (Homo sapiens), item O=C1Nc2ccc(I)cc2/C1=C1/Nc2ccccc2/C1=N\O [compound 19, 5-iodo-indirubin-3′-oxime, reference compound] = 50

# O=C1Nc2ccc(I)cc2/C1=C1/Nc2ccccc2C1=O [compound 18, 5-iodo-indirubin, reference compound] with AhR (Homo sapiens): EC50 is 30

// compound O=C1Nc2ccc(Br)cc2/C1=C1/Nc2ccccc2C1=O [compound 16, 5-bromo-indirubin, reference compound] , assay AhR (Homo sapiens), EC50 value: 35

Measured EC50 (AhR (Homo sapiens)), entry CN1C(=O)C(=C2Nc3ccccc3C2=NO)c2ccccc21 [13d, 1-Methylindirubin-3′-oxime] : 8

Record for CN1C(=O)C(=C2Nc3ccccc3C2=NO)c2ccc(Br)cc21 [13c, 6-Bromo-1-methylindirubin-3′-oxime] under target or system AhR (Homo sapiens): EC50 reported as 20

Test item Cc1ccc2c(c1)/C(=C1/Nc3ccccc3C1=O)C(=O)N2 [compound 15, 5-methyl-indirubin, reference compound] ; AhR (Homo sapiens); reported EC50 was 40

Item O=C1Nc2ccc(Cl)cc2/C1=C1/Nc2ccccc2C1=O [compound 17, 5-chloro-indirubin, reference compound] was tested on AhR (Homo sapiens); the reported EC50 is 40

Tested system AhR (Homo sapiens); EC50 recorded for O=C1Nc2ccccc2/C1=C1/Nc2ccccc2C1=O [5h, indirubin] was 6

###

Molecular target: CDK5/p25 (Homo sapiens, UniProt Q00535)
Sequence (Q00535 whole entry, species assumed): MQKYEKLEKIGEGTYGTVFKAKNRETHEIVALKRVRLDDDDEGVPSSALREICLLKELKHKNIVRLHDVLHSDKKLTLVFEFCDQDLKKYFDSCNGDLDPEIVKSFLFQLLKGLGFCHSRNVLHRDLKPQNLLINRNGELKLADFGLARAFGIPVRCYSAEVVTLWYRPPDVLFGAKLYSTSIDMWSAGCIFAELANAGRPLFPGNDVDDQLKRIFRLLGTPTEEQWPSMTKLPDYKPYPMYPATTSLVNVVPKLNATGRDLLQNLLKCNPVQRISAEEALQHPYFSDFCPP
Sequence (Q15078 99-307 partner limits assumed, species assumed): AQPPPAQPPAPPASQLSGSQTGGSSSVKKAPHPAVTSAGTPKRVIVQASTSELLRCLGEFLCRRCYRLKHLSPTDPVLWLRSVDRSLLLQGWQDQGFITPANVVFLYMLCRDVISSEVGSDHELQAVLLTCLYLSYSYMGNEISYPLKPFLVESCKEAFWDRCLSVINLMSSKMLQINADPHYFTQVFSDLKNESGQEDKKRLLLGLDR
Test: CDK5/p25 kinase assay (histone H1, 15 μM ATP)
Assay type: biochemical, mammalian
Conditions: Table 1; read-out: IC50 CDK5/p25
Would you kindly list IC50 for each of these compounds?
The figure you give is taken to be in µM; do not add the unit.

CDK5/p25 (Homo sapiens, UniProt Q00535) assay, compound O=C1Nc2cc(Br)ccc2C1=C1Nc2cc(Br)ccc2C1=NO [13b, 6,6′-dibromo-indirubin-3′-oxime] , recorded IC50 = 1.3

Readout IC50 for CON=C1C(=C2C(=O)Nc3cc(Br)ccc32)Nc2ccccc21 , test system CDK5/p25 (Homo sapiens, UniProt Q00535), was 2.2

Entry CC(=O)ON=C1C(=C2C(=O)Nc3cc(Br)ccc32)Nc2ccccc21 under CDK5/p25 (Homo sapiens, UniProt Q00535) had IC50 of 2.4

So the reported IC50 for O=C1Nc2cc(Br)ccc2C1=C1Nc2ccccc2C1=O , on CDK5/p25 (Homo sapiens, UniProt Q00535), turned out to be 53

###

Molecular target: UniProt:Q05655
Sequence (Q05655 whole entry): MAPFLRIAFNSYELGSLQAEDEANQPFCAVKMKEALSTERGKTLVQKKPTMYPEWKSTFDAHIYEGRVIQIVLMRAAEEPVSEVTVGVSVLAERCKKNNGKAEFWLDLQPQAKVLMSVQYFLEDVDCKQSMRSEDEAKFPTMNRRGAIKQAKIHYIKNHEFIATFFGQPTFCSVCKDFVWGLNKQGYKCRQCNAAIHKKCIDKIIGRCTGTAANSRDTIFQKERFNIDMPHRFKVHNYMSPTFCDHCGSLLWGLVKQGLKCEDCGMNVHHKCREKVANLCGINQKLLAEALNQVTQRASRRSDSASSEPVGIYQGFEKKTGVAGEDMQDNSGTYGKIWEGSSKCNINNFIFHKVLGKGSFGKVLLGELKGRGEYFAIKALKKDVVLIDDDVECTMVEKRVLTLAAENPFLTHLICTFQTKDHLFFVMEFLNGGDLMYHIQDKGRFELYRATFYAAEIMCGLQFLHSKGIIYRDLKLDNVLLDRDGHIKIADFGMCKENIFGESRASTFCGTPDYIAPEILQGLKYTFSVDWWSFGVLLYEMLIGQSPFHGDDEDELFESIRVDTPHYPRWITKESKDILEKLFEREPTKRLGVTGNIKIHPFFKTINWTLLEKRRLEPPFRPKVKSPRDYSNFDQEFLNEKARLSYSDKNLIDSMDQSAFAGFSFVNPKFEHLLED
Test: protein kinase C δ assay
Details: read-out: IC50 protein kinase C δ; Table 2, 15 μM ATP
reported.property: IC50

Query CON=C1C(=C2C(=O)Nc3cc(Br)ccc32)Nc2ccccc21 [9a, 6-Bromoindirubin-3′-methoxime] yields IC50 of > 10 µM

Record CC(=O)ON=C1C(=C2C(=O)Nc3cc(Br)ccc32)Nc2ccccc21 [8a, 6-Bromoindirubin-3′-acetoxime] . Reported IC50: > 10 µM

###

Target: GSK-3α/β
Assay: GSK-3α/β kinase assay (GS-1 peptide, 15 μM ATP)
Assay type: biochemical, porcine
Settings: Table 5; read-out: IC50 GSK-3α/β
For each record, check the reported IC50: if it is below 30 nM write yes, else write no.

Ask: Is IC50 of O=C1Nc2cc(Br)ccc2C1=C1Nc2cc(Br)ccc2C1=NO [13b, 6,6′-dibromo-indirubin-3′-oxime] strictly below 30 nM?
Reply: no

Ask: Is IC50 of CC(=O)ON=C1C(=C2C(=O)Nc3cc(Br)ccc32)Nc2ccccc21 [8a, 6-Bromoindirubin-3′-acetoxime] strictly below 30 nM?
Reply: yes

Ask: Please determine if O=C1Nc2cc(Br)ccc2/C1=C1/Nc2cc(Br)ccc2C1=O [12b, 6,6′-Dibromoindirubin] is below 30 nM in terms of IC50.
Reply: no

Ask: Strictly below 30 nM: is that where IC50 of Cc1cc2c(cc1Br)NC(=O)C2=C1Nc2ccccc2C1=O [5f, 6-Bromo-5-methylindirubin] sits?
Reply: yes

Ask: IC50 under 30 nM? Item: C=Cc1ccc2c(c1)NC(=O)C2=C1Nc2ccccc2C1=NOC(C)=O [8i, 6-vinylindirubin-3′-acetoxime]
Reply: no

Ask: Does the reported IC50 of O=C1Nc2cc(Cl)ccc2C1=C1Nc2ccccc2C1=NO [7d, 6-Chloroindirubin-3′-oxime] stay below 30 nM?
Reply: yes

Ask: Is the reported IC50 for CC(=O)O/N=C1/C(=C2/C(=O)Nc3cc(I)ccc32)Nc2ccccc21 [8c, 6-Iodoindirubin-3′-acetoxime] strictly below 30 nM?
Reply: yes

Ask: Hello, is IC50 of the following compound strictly smaller than 30 nM? CN1C(=O)/C(=C2\Nc3ccccc3C2=O)c2ccccc21 [12d, 1-Methylindirubin]
Reply: no

Ask: State whether 30 nM exceeds IC50 recorded for O=C1Nc2ccccc2/C1=C1/Nc2cc(Br)ccc2C1=O [12a, 6′-Bromoindirubin] .
Reply: no

Ask: Find out if reported IC50 for O=C1Nc2cccc(Cl)c2/C1=C1/Nc2ccccc2C1=O [compound 6, 4-Chloroindirubin] is less than 30 nM
Reply: no

Ask: IC50 under 30 nM? Item: C=Cc1ccc2c(c1)NC(=O)C2=C1Nc2ccccc2C1=NO [7i, 6-Vinylindirubin-3′-oxime]
Reply: no

Ask: Consider the compound CC(=O)ON=C1C(=C2C(=O)Nc3cc(Cl)c(Cl)cc32)Nc2ccccc21 [8e, 5,6Dichloroindirubin-3′-acetoxime] . Is its IC50 strictly less than 30 nM?
Reply: yes

Ask: Consider the compound CC(=O)O/N=C1/C(=C2/C(=O)Nc3cc(Cl)ccc32)Nc2ccccc21 [8d, 6-Chloroindirubin-3′-acetoxime] . Is its IC50 strictly less than 30 nM?
Reply: yes

Ask: In the record for O=C1Nc2cc(Br)c([N+](=O)[O-])cc2C1=C1Nc2ccccc2C1=O [5g, 6-Bromo-5-nitroindirubin] , is IC50 less than 30 nM?
Reply: no

Ask: is_below(IC50, 30 nM) for CN1C(=O)C(=C2Nc3ccccc3C2=O)c2ccc(Br)cc21 [12c, 6-Bromo-1-methylindirubin] ?
Reply: no

###

Test system: cGMP-dependent PK
Test: cGMP-dependent PK assay
Details: read-out: IC50 cGMP-dependent PK; Table 2, 15 μM ATP
reported.property: IC50

What the record says about CON=C1C(=C2C(=O)Nc3cc(Br)ccc32)Nc2ccccc21 : IC50 is > 10 µM

Form: molecule = CC(=O)ON=C1C(=C2C(=O)Nc3cc(Br)ccc32)Nc2ccccc21 ; IC50 = > 10 µM

###

Target: CDK2/cyclin A (Homo sapiens, UniProt P24941)
Assay: CDK2/cyclin A kinase assay
Conditions: read-out: IC50 CDK2/cyclin A; Table 2, 15 μM ATP
Kindly state IC50 for each of the entries shown.
Give just the number in µM; leave the unit off.

Looking up CON=C1C(=C2C(=O)Nc3cc(Br)ccc32)Nc2ccccc21 , I found its IC50 recorded as 15

Form: compound = CC(=O)ON=C1C(=C2C(=O)Nc3cc(Br)ccc32)Nc2ccccc21 ; IC50 = 4.3
